- EXPERIMENTAL_DETAILS: total protein half-life in vivo (active degradation + dilution); higher = more stable protein
- STUDY_CONDITIONS: wild type E. coli NCM3722; growth: C-lim chemostat; doubling time 6 h
For each record, write down the corresponding total protein half-life in vivo.
Answer as a quantity: numeral, then unit.

PRIMARY_SEQUENCE: MQILADLLNTIPAIDSTAMSRAQRHIDGLLKPVGSLGKLEVLAIQLAGMPGLNGIPHVGKKAVLVMCADHGVWEEGVAISPKEVTAIQAENMTRGTTGVCVLAEQAGANVHVIDVGIDTAEPIPGLINMRVARGSGNIASAPAMSRRQAEKLLLDVICYTQELAKNGVTLFGVGELGMANTTPAAAIVSTITGRDPEEVVGIGANLPTDKLANKIDVVRRAITLNQPNPQDGVDVLAKVGGFDLVGIAGVMLGAASCGLPVLLDGFLSYAAALAACQMSPAIKPYLIPSHLSAEKGARIALSHLGLEPYLNMEMRLGEGSGAALAMPIIEAACAIYNNMGELAASNIVLPGNTTSDLNS
total protein half-life in vivo: 4.63 h

Reported total protein half-life in vivo, sequence MSTLGHQYDNSLVSNAFGFLRLPMNFQPYDSDADWVITGVPFDMATSGRAGGRHGPAAIRQVSTNLAWEHNRFPWNFDMRERLNVVDCGDLVYAFGDAREMSEKLQAHAEKLLAAGKRMLSFGGDHFVTLPLLRAHAKHFGKMALVHFDAHTDTYANGCEFDHGTMFYTAPKEGLIDPNHSVQIGIRTEFDKDNGFTVLDACQVNDRSVDDVIAQVKQIVGDMPVYLTFDIDCLDPAFAPGTGTPVIGGLTSDRAIKLVRGLKDLNIVGMDVVEVAPAYDQSEITALAAATLALEMLYIQAAKKGE : ____
6.21 h
